- System: SEM cells
- test.summary: cell viability relative to DMSO control; higher = less cytotoxic
- condition.label: RPMI 5 mM glucose + 10% dialyzed FBS; 48 h; 0.000781 µM
// thresholds for cell viability classes: 1: < 80%; 2: ≥ 80% and < 90%; 3: ≥ 90%

smiles.text	assigned.class
CC1=CC=CC=C1N2\C(=N/C3=C(C(=CC=C3)C)C2=O)C[N]4C=NC5=C4N=CN=C5N	3
COc1cnc(N[S+](=O)([O-])c2ccc(N)cc2)nc1	1
Cn1c(=O)c2c(ncn2C)n(C)c1=O.O=C(O)CC(O)(CC(=O)O)C(=O)O	3
ClC1=C(N\C2=N\CCN2)C3=NSN=C3C=C1	3
c1cncc(CN2CCC(n3ncc4c(N5CCOCC5)nc(-c5ccc6[nH]ccc6c5)nc43)CC2)c1	2
